Tested on: L5178Y lymphoma
PROCEDURE SUMMARY: Inhibiting activity on cell proliferation, MTT analysis (L5178Y)
Format: cell-based, murine
STUDY CONDITIONS: L5178Y lymphoma cells, 3 days with drug
MEASUREMENT LABEL: IC50 (nM)
Give your result in nM as a bare value.

| MOLECULE | IC50, nM |
| --- | --- |
| COc1cc(C=CC(=O)OC2CCC3(CO3)C(C3(C)OC3CC=C(C)C)C2OC)cc(OC)c1OC (centres unmarked) [CKD-731, O-(3,4,5-trimethoxycinnamoyl)fumagillol, reference compound] | 58200 |

# evaluate next
Value lookup for IC50; key = CO[C@@H]1[C@H](OC(=O)C=Cc2ccc(OCCN(C)C)cc2)CC[C@]2(CO2)[C@H]1[C@@]1(C)O[C@@H]1CC=C(C)C [CKD-732, reference compound]
8720
